Assign % inhibition of farnesyltransferase at 1 × 10^-8 M to each entry below.
Target: protein farnesyltransferase (Rattus norvegicus, UniProt Q02293+Q04631)
Construct: The enzyme is purified according to Reiss, Y., et al., Cell, 62: 81-88 (1990), utilizing steps one through three; from tissue; host or cells: rat brain
Sequence (Q02293 whole entry, one chain of several): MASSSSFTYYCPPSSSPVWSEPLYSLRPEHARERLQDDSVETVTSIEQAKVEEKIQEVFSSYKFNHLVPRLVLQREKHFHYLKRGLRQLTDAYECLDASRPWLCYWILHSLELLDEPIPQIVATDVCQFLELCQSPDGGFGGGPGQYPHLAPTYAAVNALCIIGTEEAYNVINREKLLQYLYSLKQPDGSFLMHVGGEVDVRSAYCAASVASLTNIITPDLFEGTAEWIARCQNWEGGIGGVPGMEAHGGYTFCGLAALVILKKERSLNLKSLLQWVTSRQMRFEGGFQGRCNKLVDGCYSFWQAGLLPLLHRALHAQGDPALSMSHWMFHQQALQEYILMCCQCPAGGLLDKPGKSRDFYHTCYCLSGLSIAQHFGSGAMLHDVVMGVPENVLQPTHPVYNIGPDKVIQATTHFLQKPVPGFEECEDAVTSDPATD
Test: Inhibition of farnesyltransferase (scintillation proximity assay, rat brain enzyme, biotin-K Ras B fragment substrate)
Type: biochemical
Details: 1 × 10^-8 M (Table 4)
Numbers only, in %.

compound	result.unit	observed.result
CSCC[C@H](NC(=O)c1ccc(COCc2cc(-c3ccc(Cl)cc3)co2)cc1-c1ccccc1C)C(=O)[O-].[Li+]	%	85
COc1cccc(COCc2ccc(C(=O)N[C@@H](CCSC)C(=O)[O-])c(-c3ccccc3C)c2)c1.[Li+]	%	60
CSCC[C@H](NC(=O)c1ccc(CN(C)C(CC2CCCCC2)CC2CCCCC2)cc1-c1ccccc1C)C(=O)O	%	79
CSCC[C@H](NC(=O)c1ccc(COCc2cnc(-c3ccccc3Cl)o2)cc1-c1ccccc1C)C(=O)[O-].[Li+]	%	59

// input: 3 compounds below; output: % inhibition of farnesyltransferase at 1 × 10^-8 M for each
1. CSCC[C@H](NC(=O)c1ccc(CO[C@H](CSc2ccccc2)CC2CCCCC2)cc1-c1ccccc1C)C(=O)O
2. CCCCC(OCc1ccc(C(=O)N[C@@H](CCSC)C(=O)[O-])c(-c2ccccc2C)c1)c1ccc(-c2ccc(Cl)cc2)o1.[Li+] (stereo partly shown)
3. CCCCC(OCc1ccc(C(=O)N[C@@H](CCSC)C(=O)O)c(-c2ccccc2C)c1)c1cncs1 (stereo partly shown)

1. 94
2. 92
3. 89
